assayInfo: total protein half-life in vivo (active degradation + dilution); higher = more stable protein
protocolConditions: wild type E. coli NCM3722; growth: C-lim chemostat; doubling time 12 h
propertyName: total protein half-life in vivo (h)
Only the number, expressed in h, is required.

Request: Return reported total protein half-life in vivo; argument: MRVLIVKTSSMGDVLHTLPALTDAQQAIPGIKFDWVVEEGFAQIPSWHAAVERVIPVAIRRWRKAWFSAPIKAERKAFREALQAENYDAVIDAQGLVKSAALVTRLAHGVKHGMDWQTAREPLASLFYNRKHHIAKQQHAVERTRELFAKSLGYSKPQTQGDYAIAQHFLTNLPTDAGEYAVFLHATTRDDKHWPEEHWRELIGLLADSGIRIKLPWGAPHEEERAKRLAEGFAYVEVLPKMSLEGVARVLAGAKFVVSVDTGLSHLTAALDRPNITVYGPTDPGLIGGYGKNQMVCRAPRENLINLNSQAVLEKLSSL
Result: 13.2

Request: And what about the sequence MENQPKLNSSKEVIAFLAERFPHCFSAEGEARPLKIGIFQDLVDRVAGEMNLSKTQLRSALRLYTSSWRYLYGVKPGATRVDLDGNPCGELDEQHVEHARKQLEEAKARVQAQRAEQQAKKREAAATAGEKEDAPRRERKPRPTTPRRKEGAERKPRAQKPVEKAPKTVKAPREEQHTPVSDISALTVGQALKVKAGQNAMDATVLEITKDGVRVQLNSGMSLIVRAEHLVF ?
Result: 6.83

Request: And what about the sequence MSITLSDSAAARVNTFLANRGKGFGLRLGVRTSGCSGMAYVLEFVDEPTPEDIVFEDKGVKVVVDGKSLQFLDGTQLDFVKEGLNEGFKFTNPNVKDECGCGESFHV [P0AAC8] ?
Result: 2.08

Request: And what about the sequence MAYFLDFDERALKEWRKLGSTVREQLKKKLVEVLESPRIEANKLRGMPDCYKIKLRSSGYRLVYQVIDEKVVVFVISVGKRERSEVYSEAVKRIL [P0C077] ?
Result: 6.2

Request: And what about the sequence MMIRERIEEKLRAAFQPVFLEVVDESYRHNVPAGSESHFKVVLVSDRFTGERFLNRHRMIYSTLAEELSTTVHALALHTYTIKEWEGLQDTVFASPPCRGAGSIA [P0ABE2] ?
Result: 3.32

Request: And what about the sequence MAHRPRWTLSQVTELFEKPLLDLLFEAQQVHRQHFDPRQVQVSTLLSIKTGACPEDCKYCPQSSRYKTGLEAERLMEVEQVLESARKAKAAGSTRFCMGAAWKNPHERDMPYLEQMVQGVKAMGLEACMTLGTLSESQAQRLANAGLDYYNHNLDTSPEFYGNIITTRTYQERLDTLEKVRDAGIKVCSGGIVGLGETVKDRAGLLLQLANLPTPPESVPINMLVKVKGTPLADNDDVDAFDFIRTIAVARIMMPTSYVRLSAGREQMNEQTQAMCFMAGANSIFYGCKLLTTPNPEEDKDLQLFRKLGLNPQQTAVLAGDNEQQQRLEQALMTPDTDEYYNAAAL ?
Result: 1.44

Request: And what about the sequence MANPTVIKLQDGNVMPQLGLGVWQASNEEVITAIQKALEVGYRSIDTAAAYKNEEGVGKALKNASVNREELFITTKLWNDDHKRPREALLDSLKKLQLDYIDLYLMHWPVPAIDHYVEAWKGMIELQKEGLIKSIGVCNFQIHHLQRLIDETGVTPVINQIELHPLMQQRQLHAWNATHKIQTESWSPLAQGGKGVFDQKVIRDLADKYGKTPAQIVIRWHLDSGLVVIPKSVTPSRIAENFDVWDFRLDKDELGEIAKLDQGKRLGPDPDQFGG ?
Result: 11.8
